B1: library; a variant is named by its letters at N, in order (parent)
chain: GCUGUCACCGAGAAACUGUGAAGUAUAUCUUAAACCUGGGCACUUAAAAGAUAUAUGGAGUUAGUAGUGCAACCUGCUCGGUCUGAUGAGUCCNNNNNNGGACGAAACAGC

- Variants of: B1
- Experiment: FACS-Seq fitted mean relative fluorescence mCherry/BFP with ligand (log10 relative fluorescence); HEK293T; ligand: cyclic di-GMP (c-di-GMP-II aptamer); ligand concentration (+) FACS-Seq: 1 mM; higher = higher reporter protein expression
- Stated conditions: ligand present: yes
Class Y: FACS-Seq fitted mean (log10) at least -0.2. Class N: FACS-Seq fitted mean (log10) below -0.2.

>  <Variant code>
UAACUC

>  <Group label>
N

$$$$
>  <Variant code>
ACCAAG

>  <Group label>
Y

$$$$
>  <Variant code>
UAAUCU

>  <Group label>
N

$$$$

# input Check if FACS-Seq fitted mean (log10) >= -0.2 (inclusive). Item: UUUCGA
# output Y

# input Quick check, FACS-Seq fitted mean (log10) >= -0.2? CCCCUG
# output Y

# input Can CGCCUC be said to have FACS-Seq fitted mean (log10) at or above -0.2?
# output Y

# input Determine whether this variant has FACS-Seq fitted mean (log10) no lower than -0.2: CUAUAA
# output N

# input Does the variant AGUAGU have recorded FACS-Seq fitted mean (log10) that is -0.2 or more?
# output Y

# input Given the entry AGAUAA , answer whether its FACS-Seq fitted mean (log10) meets or surpasses -0.2.
# output N

# input Reported FACS-Seq fitted mean (log10) reaches at least -0.2 for GUACGG ?
# output Y

# input Threshold query (FACS-Seq fitted mean (log10) >= -0.2) on CCGCUU
# output Y

# input Is FACS-Seq fitted mean (log10) for CUAAAA at or above -0.2?
# output Y

# input API: above_or_equal(metric=FACS-Seq fitted mean (log10), cutoff=-0.2) for item AAAUUG
# output Y

# input Does the reported FACS-Seq fitted mean (log10) for CUGUCA fall at or above the -0.2 mark?
# output Y

# input Hello, I need to know if UACAAC has measured FACS-Seq fitted mean (log10) not below -0.2. Thanks!
# output Y

# input Does FACS-Seq fitted mean (log10) meet or surpass -0.2 for CGCUCU ?
# output N

# input For this variant, is measured FACS-Seq fitted mean (log10) -0.2 or higher? GUAGGA
# output Y

Numbers sourced from the supplement of paper PMC6757056.
